Provenance of the data: patent US20120014876A1

# study target: rat frizzled-1 receptor (rat, UniProt Q08463 69-641)
# Sequence (Q08463 69-641): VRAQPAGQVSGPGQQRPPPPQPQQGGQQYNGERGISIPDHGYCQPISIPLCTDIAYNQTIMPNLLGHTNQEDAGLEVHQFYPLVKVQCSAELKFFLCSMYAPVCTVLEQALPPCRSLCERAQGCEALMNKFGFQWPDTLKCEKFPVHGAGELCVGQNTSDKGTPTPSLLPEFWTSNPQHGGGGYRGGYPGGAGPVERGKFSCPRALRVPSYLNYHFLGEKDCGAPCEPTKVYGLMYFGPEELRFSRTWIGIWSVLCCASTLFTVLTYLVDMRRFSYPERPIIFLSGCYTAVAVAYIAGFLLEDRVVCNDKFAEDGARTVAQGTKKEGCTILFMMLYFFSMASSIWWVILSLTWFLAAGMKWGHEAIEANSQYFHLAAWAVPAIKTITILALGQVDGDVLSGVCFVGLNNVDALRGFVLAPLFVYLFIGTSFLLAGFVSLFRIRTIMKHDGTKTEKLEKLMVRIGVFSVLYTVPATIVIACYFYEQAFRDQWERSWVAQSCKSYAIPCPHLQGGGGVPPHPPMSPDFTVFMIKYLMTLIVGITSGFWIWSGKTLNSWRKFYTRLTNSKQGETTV
# test method notes: cell-based or functional assay
Where no end group is shown, it is not given here.
measurement name: % of inhibition of Wnt3a-induced luciferase activity, peptide 1.10^-9 M (%)
Just the number please, in %, no unit attached.

A selection of reference data follows.
CNVSSHGIDGCDL-NH2 (cysteine pairing not given here) [peptide CNVSSHGIDGCDL (SEQ ID NO:18)]	45.3
CNATSEGMDGCEL-NH2 (cysteine pairing not given here) [UM206 (3 K = A)]	70.8
CNKTSEGMDGAEL [UM206 (11 C = A)]	67.2
CNKTSEGMDGCEA-NH2 (cysteine pairing not given here) [UM206 (13 L = A)]	65.9

// below: % of inhibition of Wnt3a-induced luciferase activity, peptide 1.10^-9 M requested for another binder
Form field % of inhibition of Wnt3a-induced luciferase activity, peptide 1.10^-9 M, entry CNKTSEAMDGCEL-NH2 (cysteine pairing not given here) [UM206 (7 G = A)] : 52.6
